assay_target: purified recombinant human PSMA protein (PSMA extracellular domain, baculovirus-insect cell expression) (UniProt Q04609 44-750)
Sequence (Q04609 44-750): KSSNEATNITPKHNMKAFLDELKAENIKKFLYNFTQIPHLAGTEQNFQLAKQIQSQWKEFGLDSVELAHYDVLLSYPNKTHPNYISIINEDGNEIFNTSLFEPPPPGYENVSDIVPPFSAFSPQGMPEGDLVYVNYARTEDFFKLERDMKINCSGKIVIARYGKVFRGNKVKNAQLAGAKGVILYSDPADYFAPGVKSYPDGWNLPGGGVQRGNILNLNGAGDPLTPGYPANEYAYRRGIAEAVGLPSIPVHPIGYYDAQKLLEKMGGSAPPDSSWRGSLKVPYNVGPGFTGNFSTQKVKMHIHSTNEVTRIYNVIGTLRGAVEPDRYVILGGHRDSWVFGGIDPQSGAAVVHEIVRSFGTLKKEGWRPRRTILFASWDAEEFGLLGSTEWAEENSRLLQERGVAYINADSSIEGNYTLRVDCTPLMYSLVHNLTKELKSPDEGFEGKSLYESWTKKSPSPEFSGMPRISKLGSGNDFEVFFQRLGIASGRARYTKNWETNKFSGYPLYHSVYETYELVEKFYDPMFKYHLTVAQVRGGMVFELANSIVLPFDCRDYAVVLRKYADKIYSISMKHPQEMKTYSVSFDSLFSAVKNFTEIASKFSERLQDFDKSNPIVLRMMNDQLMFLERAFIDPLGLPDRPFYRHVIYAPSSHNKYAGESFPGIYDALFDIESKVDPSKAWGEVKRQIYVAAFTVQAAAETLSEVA
measurement_protocol: SPR (Biacore)
Consider the following binders; for each one, report its Kd.
State just the number; it will be interpreted in nM.

Give the reported value of Kd for this record: anti-PSMA mouse monoclonal antibody #1377 (antibody, V domains shown) VH: VQLQQPGAALVRPGASVRLSCKASGYSFTYYWMNWVMQRPGQGLEWIGMIHPSDSETRLSQKFRDKATLTVDKSSSTVYMQLNSPTSDDSAVYYCARDGNFPYYALDYWGQGTSVTVSS VL: DVVLTQAPLSLPVSLGDQASISCRSSQSLEYSNGNTYLHWYLQKPGQSPELLIYTVSNRFSGVPDRFSGSGSGTDFTLKIHRVEAEDLGVYFCSQSTHVPTFGGGTKLEIKR
18.6

Give the reported value of Kd for this record: anti-PSMA mouse monoclonal antibody #1207 (antibody, V domains shown) VH: VKLQQSGPGLVKPSQSLSLTCAVTGYSITSDYAWNWIRKFPGNKLEWMGYISYSGRTTYNPSLESRISITRDTSKNQFFLQLNSVTTEDTATYYCARCYYGSSSRWYGMDYWGRGTSVAVSS VL: IVLTQSPAIMSASPGVKVTMTCRASSSVDSSYLHWYQQKSGASPQVWIYSTSNLASGVPARFSGSGSGTSYSLTISSVEAEDAATYYCQQYSGYPLTFGGGTKLEIKR
8.13

Give the reported value of Kd for this record: anti-PSMA mouse monoclonal antibody #219 (antibody, V domains shown) VH: VQLQQSGPELEKPGASVKMSCKASGYSFTGYNVNWVRQNNGKSLEWIGNIDPLHGGTTYNQKFKAKATLTVDRSSSTAYLQLKNLTSEDSAVYYCARSSRFDYWGQGTTLTVSS VL: DIVMTQSHKFMSTSVGDRVNITCKASQDVGTAVAWYQQKPGQSPKLLIYWASTRHTGVPDRFTGSGSGTDFTLTISNVQSEDLADYFCHQFTSYPFTFGSGTSLEMKR
2.64

Give the reported value of Kd for this record: anti-PSMA mouse monoclonal antibody #1352 (antibody, V domains shown) VH: VKLQQSGPELEKPGASVKISCKASGYSFTGYNVNWVKQSNGKSLEWIGNIDPYHGGTTYNQKFEAKATLTVDKSSSTAYMQLKSLTSEDSAVYYCARSSRFDYWGQGTTLTVSS VL: DIVMTQSHKFMSTSVGDRVNITCKASQDVGTAVAWYQQKPGQSPKFLIYWASTRHTGVPDRFTGSGSGTDFTLTISNVQSEDLADYFCHQYTSYPFTFGSGTKLEMKR
1.99
